The values you see were collected from ChEMBL document CHEMBL1153229.

MRT values for the compounds below.
experimental-protocol: Mean residence time in mouse at 5 mg/kg, po
Assay type: ADME, organism-based
Parameters: dose 5 mg/kg, route oral
test-settings: in vivo
Provide the reading as a plain figure in h.

Below: 3 compounds and their reported MRT.
- sample-smiles: "CC(C)(C)[C@H](C(=O)Nc1ncc(Cl)s1)c1ccc(Cl)cc1"
  measurement-unit: "h"
  MRT: 7.6
- sample-smiles: "CC(C)(C)[C@H](C(=O)Nc1ncc(-c2ccccc2)s1)c1ccc(Cl)cc1"
  measurement-unit: "h"
  MRT: 9.2
- sample-smiles: "CC(C)[C@H](C(=O)Nc1nccs1)c1ccc(Cl)cc1"
  measurement-unit: "h"
  MRT: 1.8

Per the record, "CC(C)[C@H](C(=O)Nc1ncc(F)s1)c1ccc(Cl)cc1" has MRT of 0.93

---

Test system: Rattus norvegicus
experimental-protocol: AUC in Sprague-Dawley rat at 0.5 mg/kg, iv
Assay type: ADME, organism-based, Plasma
Design: dose 0.5 mg/kg, route intravenous
test-settings: in vivo
readout-name: AUC (ng·h/mL)
Provide the reading as a plain figure in ng·h/mL.

- sample-smiles: "CC(C)(C)[C@H](C(=O)Nc1ncc(Cl)s1)c1ccc(Cl)cc1"
  AUC / ng·h/mL: 1030
- sample-smiles: "CC(C)[C@H](C(=O)Nc1nccs1)c1ccc(Cl)cc1"
  AUC / ng·h/mL: 79
- sample-smiles: "CC(C)[C@H](C(=O)Nc1ncc(F)s1)c1ccc(Cl)cc1"
  AUC / ng·h/mL: 194

Record for "CC(C)(C)[C@H](C(=O)Nc1ncc(-c2ccccc2)s1)c1ccc(Cl)cc1" under target or system Rattus norvegicus: AUC reported as 1670

Record for "CC(C)[C@H](C(=O)Nc1ncc(Cl)s1)c1ccc(Cl)cc1" under target or system Rattus norvegicus: AUC reported as 249

---

Tmax values for the compounds below.
experimental-protocol: Tmax in mouse at 5 mg/kg, po
Type: ADME, organism-based
Set-up: dose 5 mg/kg, route oral
test-settings: in vivo
Provide the reading as a plain figure in h.

Below: 3 compounds and their reported Tmax.
- sample-smiles: "CC(C)[C@H](C(=O)Nc1nccs1)c1ccc(Cl)cc1"
  Tmax (h): 1
- sample-smiles: "CC(C)(C)[C@H](C(=O)Nc1ncc(-c2ccccc2)s1)c1ccc(Cl)cc1"
  Tmax (h): 2
- sample-smiles: "CC(C)(C)[C@H](C(=O)Nc1ncc(Cl)s1)c1ccc(Cl)cc1"
  Tmax (h): 2

Then this compound:
Per the record, "CC(C)[C@H](C(=O)Nc1ncc(F)s1)c1ccc(Cl)cc1" has Tmax of 0.33

---

experimental-protocol: AUC in mouse at 5 mg/kg, po
Type: ADME, organism-based
Design: dose 5 mg/kg, route oral
test-settings: plasma
readout-name: AUC (µg·h/mL)
Provide the reading as a plain figure in µg·h/mL.

Below: 3 molecules and their reported AUC.
- sample-smiles: "CC(C)[C@H](C(=O)Nc1nccs1)c1ccc(Cl)cc1"
  measurement-unit: "µg·h/mL"
  AUC: 10
- sample-smiles: "CC(C)(C)[C@H](C(=O)Nc1ncc(Cl)s1)c1ccc(Cl)cc1"
  measurement-unit: "µg·h/mL"
  AUC: 4550
- sample-smiles: "CC(C)(C)[C@H](C(=O)Nc1ncc(-c2ccccc2)s1)c1ccc(Cl)cc1"
  measurement-unit: "µg·h/mL"
  AUC: 18600

Per the record, "CC(C)[C@H](C(=O)Nc1ncc(F)s1)c1ccc(Cl)cc1" has AUC of 62
